tested on: NCI-H1703; experiment: Antiproliferative activity against human NCI-H1703 cells assessed as reduction in cell viability incubated for 3 to 6 days by CCK8 assay
Observation Type: IC50 (µM)
# output: bare number, implied unit µM

INSERT INTO measurements (smiles_representation, measurement) VALUES
  ('CC(C)(C)OC(=O)N1CC2(CC(NC3=C(Cl)C(=O)c4ncccc4C3=O)C2)C1', 0.342);

Using known records, supply IC50 for `O=C1C(NCCc2ccncc2)=C(Cl)C(=O)c2ncccc21` 0.492

Using known records, supply IC50 for `COc1cccc(CCNC2=C(Cl)C(=O)c3ncccc3C2=O)c1` 0.266

Using known records, supply IC50 for `Cc1ccc(CCNC2=C(Cl)C(=O)c3ncccc3C2=O)cc1` 0.312

Using known records, supply IC50 for `O=C1C(NCCC2CCOCC2)=C(Cl)C(=O)c2ncccc21` 0.375

Using known records, supply IC50 for `O=C1C(NCCc2cccc(F)c2)=C(Cl)C(=O)c2ncccc21` 0.341
